Exercise: state measured pKd for each of the compounds provided.
- Tested target: UniProt:P01116
- Method summary: Binding to KRAS by surface plasmon resonance (SPR), Single Cycle Kinetics
- Test settings: SPR Single Cycle Kinetics, GDP-bound KRAS wild-type protein, 1:1 binding model; read-out: KRAS KD
Where a SMILES comes first, the peptide text is derived from it. Bridges are numbered along the chain shown (N, C = ends). [ ]: non-standard residue; d: D form. The star is where a group is joined. hPhe(3-Cl-4-CF3) = N[C@@H](CCc1ccc(C(F)(F)F)c(Cl)c1)C(=O)O; NPrPhe(4-CF3) = CCCN[C@@H](Cc1ccc(C(F)(F)F)cc1)C(=O)O; NMeGly(cPent) = CN[C@H](C(=O)O)C1CCCC1; NMeGly(cBu) = CN[C@H](C(=O)O)C1CCC1; NMeD = CN[C@@H](CC(=O)O)C(=O)O; NMeL = CN[C@@H](CC(C)C)C(=O)O; Morpholide = C1CN(*)CCO1; NMeA = CN[C@@H](C)C(=O)O; Ac5c = NC1(C(=O)O)CCCC1; Aze = O=C(O)[C@@H]1CCN1; NcPrGly = O=C(O)CNC1CC1; Sar = CNCC(=O)O
One number for each entry, as −log10 of the molar value.

// known answers, use as guide
>  <Compound>
CCCN1C(=O)[C@@H]2CCN2C(=O)[C@H](C)N(C)C(=O)[C@H]([C@@H](C)CC)NC(=O)[C@H](C2CCC2)N(C)C(=O)C[C@@H](C(=O)N2CCOCC2)N(C)C(=O)[C@H](C2CCCC2)N(C)C(=O)C2(CCCC2)NC(=O)[C@@H]2CCCN2C(=O)[C@H](CCc2ccc(C(F)(F)F)c(Cl)c2)NC(=O)CN(C)C(=O)[C@@H]1Cc1ccc(C(F)(F)F)cc1 [PP0192] ([NMeGly(cBu)]I[NMeA][Aze][NPrPhe(4-CF3)][Sar][hPhe(3-Cl-4-CF3)]P[Ac5c][NMeGly(cPent)][NMeD]-Morpholide; lactam N-11)

>  <pKd>
9.72

$$$$
>  <Compound>
CC[C@H](C)[C@@H]1NC(=O)[C@H](C)N(C)C(=O)C[C@@H](C(=O)N(C)C)N(C)C(=O)[C@H](C2CCCC2)N(C)C(=O)C2(CCC2)NC(=O)[C@@H]2CC(F)(F)CN2C(=O)[C@H](CCc2cc(F)c(C(F)(F)F)c(F)c2)NC(=O)CN(C)C(=O)[C@H](Cc2ccc(C(F)(F)F)cc2)N2CCCC[C@@H](C2=O)N(C)C(=O)CN(C)C1=O

>  <pKd>
11.11

$$$$

Parameters: items (list). Returns: pKd for each item.
1. CC[C@H](C)[C@@H]1NC(=O)[C@H](CC(C)C)N(C)C(=O)C[C@@H](C(=O)N(C)C)N(C)C(=O)[C@H](C2CCCC2)N(C)C(=O)C2(CCCC2)NC(=O)[C@@H]2CC(F)(F)CN2C(=O)[C@H](CCc2cc(F)c(C(F)(F)F)c(F)c2)NC(=O)CN(C)C(=O)[C@H](Cc2ccc(C(F)(F)F)cc2)N2CCCCC[C@@H](C2=O)N(C)C(=O)CN(C)C1=O
2. CC[C@H](C)[C@@H]1NC(=O)[C@H](CC(C)C)N(C)C(=O)C[C@@H](C(=O)N2CCOCC2)N(C)C(=O)[C@H](CC(F)(F)F)N(C)C(=O)C2(CCCC2)NC(=O)[C@@H]2CCCN2C(=O)[C@H](CCc2cc(F)c(C(F)(F)F)c(F)c2)NC(=O)CN(C)C(=O)[C@H](Cc2ccc(C(F)(F)F)cc2)N2CCCCC[C@@H](C2=O)N(C)C(=O)CN(C)C1=O
3. CCCN1C(=O)[C@@H]2CCN2C(=O)CN(C2CC2)C(=O)[C@H]([C@@H](C)CC)NC(=O)[C@H](CC(C)C)N(C)C(=O)C[C@@H](C(=O)N2CCOCC2)N(C)C(=O)[C@H](C2CCCC2)N(C)C(=O)C2(CCCC2)NC(=O)[C@@H]2CCCN2C(=O)[C@H](CCc2ccc(C(F)(F)F)c(Cl)c2)NC(=O)CN(C)C(=O)[C@@H]1Cc1ccc(C(F)(F)F)cc1 [PP0273] ([NMeL]I[NcPrGly][Aze][NPrPhe(4-CF3)][Sar][hPhe(3-Cl-4-CF3)]P[Ac5c][NMeGly(cPent)][NMeD]-Morpholide; lactam N-11)

Response:
[9.29, 7.60, 9.25]

----------
- Tested target: GDP-bound KRAS wild-type protein (Homo sapiens, UniProt P01116)
- Sequence (P01116 whole entry): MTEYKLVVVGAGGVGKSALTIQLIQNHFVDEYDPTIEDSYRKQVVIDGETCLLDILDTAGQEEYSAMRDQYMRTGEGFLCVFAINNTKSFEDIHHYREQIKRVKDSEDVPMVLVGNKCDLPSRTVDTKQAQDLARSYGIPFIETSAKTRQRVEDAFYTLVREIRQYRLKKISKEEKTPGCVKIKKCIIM
- Method summary: Binding to KRAS by surface plasmon resonance (SPR), Single Cycle Kinetics
- Test settings: SPR Single Cycle Kinetics, GDP-bound KRAS wild-type protein, 1:1 binding model; read-out: KRAS KD
*1 amine or outer side, *2 acyl side, *3 side chain or, on linkers, in order; H or OH if unused. Where a SMILES comes first, the peptide text is derived from it. Bridges are numbered along the chain shown (N, C = ends). [ ]: non-standard residue; d: D form. The star is where a group is joined. hPhe(3-Cl-4-CF3) = N[C@@H](CCc1ccc(C(F)(F)F)c(Cl)c1)C(=O)O; X36 = Cc1ccc(C[C@@H](C(=O)[*:2])N(CCC(F)(F)F)[*:1])cc1; NPrPhe(4-CF3) = CCCN[C@@H](Cc1ccc(C(F)(F)F)cc1)C(=O)O; X20 = Cc1ccc(C[C@@H](C(=O)[*:2])N(CC2CCCC2)[*:1])cc1; NEtPhe(4-Me) = CCN[C@@H](Cc1ccc(C)cc1)C(=O)O; NMeGly(cPent) = CN[C@H](C(=O)O)C1CCCC1; Hyp = O=C(O)[C@@H]1C[C@@H](O)CN1; NMeD = CN[C@@H](CC(=O)O)C(=O)O; NMeL = CN[C@@H](CC(C)C)C(=O)O; Morpholide = C1CN(*)CCO1; NMeA = CN[C@@H](C)C(=O)O; Ac5c = NC1(C(=O)O)CCCC1; Aze = O=C(O)[C@@H]1CCN1; Sar = CNCC(=O)O
# label = class 1 if Kd < 0.1 nM else class 0

>  <Compound>
CC[C@H](C)[C@@H]1NC(=O)[C@H](CC(C)C)N(C)C(=O)C[C@@H](C(=O)N2CCOCC2)N(C)C(=O)[C@H](C2CCCC2)N(C)C(=O)C2(CCCC2)NC(=O)[C@@H]2C[C@@H](O)CN2C(=O)[C@H](CCc2ccc(C(F)(F)F)c(Cl)c2)NC(=O)CN(C)C(=O)[C@H](Cc2ccc(C)cc2)N(CC)C(=O)[C@@H]2CCN2C(=O)[C@H](C)N(C)C1=O [PP0013] ([NMeL]I[NMeA][Aze][NEtPhe(4-Me)][Sar][hPhe(3-Cl-4-CF3)][Hyp][Ac5c][NMeGly(cPent)][NMeD]-Morpholide; lactam N-11)

>  <Assigned category>
class 1

$$$$
>  <Compound>
CCCN1C(=O)[C@@H]2CCN2C(=O)CN(C)C(=O)[C@H]([C@@H](C)CC)NC(=O)[C@H](CC(C)C)N(C)C(=O)C[C@@H](C(=O)N2CCOCC2)N(C)C(=O)[C@H](C2CCCC2)N(C)C(=O)C2(CCCC2)NC(=O)[C@@H]2CCCN2C(=O)[C@H](CCc2ccc(C(F)(F)F)c(Cl)c2)NC(=O)CN(C)C(=O)[C@@H]1Cc1ccc(C(F)(F)F)cc1 [PP0156] ([NMeL]I[Sar][Aze][NPrPhe(4-CF3)][Sar][hPhe(3-Cl-4-CF3)]P[Ac5c][NMeGly(cPent)][NMeD]-Morpholide; lactam N-11)

>  <Assigned category>
class 0

$$$$
>  <Compound>
CC[C@H](C)[C@@H]1NC(=O)[C@H](CC(C)C)N(C)C(=O)C[C@@H](C(=O)N2CCOCC2)N(C)C(=O)[C@H](C2CCCC2)N(C)C(=O)C2(CCCC2)NC(=O)[C@@H]2CCCN2C(=O)[C@H](CCc2ccc(C(F)(F)F)c(Cl)c2)NC(=O)CN(C)C(=O)[C@H](Cc2ccc(C)cc2)N(CC2CCCC2)C(=O)[C@@H]2CCN2C(=O)[C@H](C)N(C)C1=O [PP0084] ([NMeL]I[NMeA][Aze][X20][Sar][hPhe(3-Cl-4-CF3)]P[Ac5c][NMeGly(cPent)][NMeD]-Morpholide; lactam N-11)

>  <Assigned category>
class 0

$$$$
>  <Compound>
CCC[C@H]1C(=O)N[C@@H](CC(C)C)C(=O)N2C[C@@H](OC)C[C@H]2C(=O)N(C)[C@H]2C/C=C\CCN(C2=O)[C@@H](Cc2ccc(C)cc2)C(=O)N(C)CC(=O)N[C@@H](CCc2cc(F)c(C(F)(F)F)c(F)c2)C(=O)N2C[C@H](OCC)C[C@H]2C(=O)NC2(CC(C)(C)C2)C(=O)N(C)[C@@H](C2CCCC2)C(=O)N(C)[C@H](C(=O)N(C)C)CC(=O)N1C

>  <Assigned category>
class 0

$$$$

Now, please, on to the next compound.
Query: Could you please tell me whether Kd recorded for CC[C@H](C)[C@@H]1NC(=O)[C@H](CC(C)C)N(C)C(=O)C[C@@H](C(=O)N2CCOCC2)N(C)C(=O)[C@H](C2CCCC2)N(C)C(=O)C2(CCCC2)NC(=O)[C@@H]2CCCN2C(=O)[C@H](CCc2ccc(C(F)(F)F)c(Cl)c2)NC(=O)CN(C)C(=O)[C@H](Cc2ccc(C)cc2)N(CCC(F)(F)F)C(=O)CN(C)C(=O)CN(C)C1=O [PP0103] ([NMeL]I[Sar][Sar][X36][Sar][hPhe(3-Cl-4-CF3)]P[Ac5c][NMeGly(cPent)][NMeD]-Morpholide; lactam N-11) is less than 0.1 nM?
Response: class 0
